Source of measurements: patent US20200399712A1

Known Threshold of tumor cell numbers for HPV-16 detection of a selection of molecules
# System: HPV-16
# Experiment notes: qPCR sensitivity against HPV-HNSCC tumor samples diluted among 10 ng normal human DNA
# Condition details: Sample # 1
Measurement type: Threshold of tumor cell numbers for HPV-16 detection (tumor cells)

>  <Molecule>
HR E5L2-4: primer/probe set for junction between E5 and L2, SEQ ID NO: 55-57 (same as SEQ ID NO: 4-6) (nucleic acid, chemistry not given here) DNA 1: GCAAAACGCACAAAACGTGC DNA 2: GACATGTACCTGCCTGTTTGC DNA 3: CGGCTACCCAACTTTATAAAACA

>  <Measurement units>
tumor cells

>  <Reading>
30.0

$$$$
>  <Molecule>
BR E1-4: HPV-16 E1 region primer/probe set, SEQ ID NO: 37-39 (nucleic acid, chemistry not given here) DNA 1: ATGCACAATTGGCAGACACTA DNA 2: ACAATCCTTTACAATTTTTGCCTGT DNA 3: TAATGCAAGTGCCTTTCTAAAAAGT

>  <Measurement units>
tumor cells

>  <Reading>
150.0

$$$$
